meta.source: paper PMC8809517

Target: T1, GFP-9S library array, motif 4 ND N98E;D124E (synthetic construct, N98E;D124E)
T1 chain: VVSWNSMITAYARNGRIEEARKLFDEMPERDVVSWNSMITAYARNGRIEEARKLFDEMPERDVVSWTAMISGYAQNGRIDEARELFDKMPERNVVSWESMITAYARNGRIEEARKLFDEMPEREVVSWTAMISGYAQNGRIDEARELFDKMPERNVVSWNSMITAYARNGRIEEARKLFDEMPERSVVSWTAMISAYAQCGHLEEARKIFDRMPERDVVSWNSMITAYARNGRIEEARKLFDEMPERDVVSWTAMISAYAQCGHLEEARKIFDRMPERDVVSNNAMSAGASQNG
Assay: high-throughput RNA pulldown from lysate on Ni-NTA beads; HRP: 50 mM Tris pH 8, 150 mM NaCl, 1 mM beta-mercaptoethanol, 50 ug/ml BSA, 3 ug/ml yeast RNA, 0.5% heparin; ITC and FP: Tris pH 8, 200 mM KCl, 5% glycerol; MST: 50 mM Tris pH 8, 200 mM NaCl, 1 mM DTT, BSA, heparin, 0.05% Tween 20
Conditions: tags: N-terminal His-eGFP; label: 5' Cy5
// reported pKd for each item listed
FYI, pKd means -log10 of a concentration in mol per litre.

> print(dat)
                             binder  result
1  AUUAGACGUGA (ssRNA) [Cy5-rpoA-G]    6.77

## Input Recorded pKd for AUUACACGUGA (ssRNA) [Cy5-rpoA] , please?
## Output 6.60
